testedSystem: T1, CD137-hisFc fusion protein (Sino Biological Cat 10041-H03H) (human, UniProt Q07011 24-186)
T1 construct: Bought; also called recombinant human CD137 (fused with human Fc and His tag); not shown: His tag and human Fc
measurementNotes: BLI Octet, Fab
readoutKind: pKd
pKd (log units): -log10 of the concentration in mol/L.

{"binder": "Fab 7166 (Fab, V domains shown, Fab from E. coli; also called VH60/VL60) VH: EVQLVESGGGLVQPGGSLRLSCAASGFSLSTSGVAVAWIRQAPGKGLEWIGDIYHSGNTYYNPSLKSRVTISRDNSKNTLYLQLNSLRAEDTAVYYCARGGSDTVVGDWFAYWGQGTLVTVSS VL: DIQLTQSPSSLSASVGDRVTITCRASQSISSYLNWYQQKPGKAPKLLIYAASTLQSGVPSRFSGSGSGTDFTLTISSLQPEDFATYYCQQYYSTPLTFGQGTKVEIKR", "pKd": 7.91}

Now look at this one.
input: Report pKd for Fab 5351 (Fab, V domains shown, Fab from E. coli; also called VH25/VL25) VH: EVQLVESGGGLVQPGGSLRLSCAASGYSITSGHYWAWIRQAPGKGLEWVSSISGYGSTTYYADSVKGRFTISRDNSKNTLYLQLNSLRAEDTAVYYCARGGSDAVLGDWFAYWGQGTLVTVSS VL: DIQLTQSPSSLSASVGDRVTITCRASQGIGSFLAWYQQKPGKAPKLLIYDASNLETGVPSRFSGSGSGTDFTLTISSLQPEDFATYYCQQGYYLWTFGQGTKVEIKR please.
output: 8.14
